Measured values drawn from the supplement of paper PMC10567573 for this set.

B1: EPB41L3 (parent)
chain: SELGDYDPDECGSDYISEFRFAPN

Variants of: B1
Assay: protein stability index of a GFP-peptide fusion (GPS, HEK-293T) (PSI 1-6); higher = more stable;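 further: lentivirally expressed fusions sorted by FACS into six bins by GFP to DsRed ratio, PSI derived from sequencing read proportions per bin multiplied by bin number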
Details: c terminus: a fixed tail appended
Answer not met if protein stability index is under 2, and met if it is 2 or more.

# example entries with known answers
MUTANT_DESIGNATION: S1N
LABEL_CLASS: not met

MUTANT_DESIGNATION: E2S
LABEL_CLASS: not met

MUTANT_DESIGNATION: F19M
LABEL_CLASS: met

MUTANT_DESIGNATION: S17A
LABEL_CLASS: met

MUTANT_DESIGNATION: S13E
LABEL_CLASS: met

**Query** # check: protein stability index of "I16W" is greater than or equal to 2
**Result** met

**Query** protein stability index >= 2 for "E2A" ?
**Result** not met

**Query** Decide: is the reported value of protein stability index for "S13V" equal to or greater than 2?
**Result** not met

**Query** Given "D7I" , state whether its protein stability index is at least 2.
**Result** not met

**Query** Threshold query (protein stability index >= 2) on "I16Y"
**Result** met

**Query** Entry "Y15V" : is its protein stability index no less than 2?
**Result** met

**Query** Test whether the variant "S1Q" records protein stability index of 2 or higher.
**Result** met
